Please provide measured growth inhibition for the entries that follow.
# EXPERIMENTAL_PROTOCOL: NCI Yeast Anticancer Drug Screen. Data for the bub3 strain (AID 167)
# CONDITION_INFO: S. cerevisiae bub3 mutant strain, at 50.0 µM (retest, dose inferred, filed as 5.0), hits give high values
The panel holds about 79,000 compounds, 15% with a hit somewhere; the sample as a whole holds those more often.
Provide only the numeric value, understood in %.

Query block: What does the record list as growth inhibition for `c1ccc([CH2][Sn]([CH2]c2ccccc2)([S]c2cccc3cccnc23)[S]c2cccc3cccnc23)cc1` ?
Result block: 30

Query block: Thanks! And `O=[N+]([O-])C(=C1Nc2ccccc2N1)C(Cl)=C(Cl)Cl` ?
Result block: 12

Query block: Thanks! And `CCc1c(O)c(O)c(C(C)=O)c2c(O)c(-c3c(C)cc4c(CC)c(O)c(O)c(C(C)=O)c4c3O)c(C)cc12` ?
Result block: 97

Query block: Thanks! And `CCCCCCCCCCCCNCCNCCN` ?
Result block: 96

Query block: Thanks! And `O=C1c2ccccc2-c2cc(S)c([N+](=O)[O-])cc21` ?
Result block: 14

Query block: Thanks! And `O=C1c2ccccc2C(=O)c2c1ccc(C(=O)O)c2-c1ccc2ccccc2c1` ?
Result block: 98

Query block: Thanks! And `CC(C)(N)COB(c1ccccc1)c1ccccc1` ?
Result block: 98

Query block: Thanks! And `CCCN(CCC)CCNc1ccc(C)c2sc3ccccc3c(=O)c12` ?
Result block: 99

Query block: Thanks! And COC(=O)[C@@]12OC[C@]34[C@H]([C@@H](O)[C@@H]1O)[C@@]1(C)CC(=O)C(O)=C(C)[C@@H]1C[C@H]3OC(=O)[C@H](OC(=O)C(Cc1ccccc1)NC(=O)OC(C)(C)C)[C@@H]24 (some centres undefined) ?
Result block: 80

Query block: Thanks! And `C(=C\c1cnnc2ccccc12)/c1ccco1` ?
Result block: 27

Query block: Thanks! And `CCCCCCCCCCCC(=O)N(CC)CC` ?
Result block: 100

Query block: Thanks! And `CCCCCC/C=C/C#CCCCCCCCC(=O)O` ?
Result block: 3

Query block: Thanks! And `Cc1ccc(C)c(S(=O)(=O)Nc2c([N+](=O)[O-])cc([N+](=O)[O-])c3ccccc23)c1` ?
Result block: 30

Query block: Thanks! And `Cc1cc(O)c(NCCN(C)C)c2c(=O)c3ccccc3sc12` ?
Result block: 94

Query block: Thanks! And `Oc1ccc(-c2nnc(-c3ccc(Cl)cc3Cl)o2)cc1` ?
Result block: 91

Query block: Thanks! And `CCCCCCOC(=O)COc1ccccc1` ?
Result block: 45

Query block: Thanks! And `O=Cc1[nH]c(=S)[nH]c(=O)c1CCCc1ccccc1` ?
Result block: 95

Query block: Thanks! And `CCOC(=O)CNC(=O)CNC(=O)CNC(c1ccccc1)(c1ccccc1)c1ccccc1` ?
Result block: 61

Query block: Thanks! And COc1ccc(NC(=O)CCC(=O)C(C)C(=O)c2ccccc2)cc1 (centres undefined) ?
Result block: 21
